System: OVCAR-8
Assay: NCI tumour cell line growth inhibition, 48 h
Active and inactive are the calls of the source. Cut-off read from the data, not from the text of the source: active = GI50 up to about 1.1 µM and inactive = higher.
Your answer must be one of the following: Y for active, N for inactive

Task: Which outcome was entered for the molecule COc1ccc2c(c1)CC1Cc3ccccc3CCN1C2 (stereo not given) in this test?
Output: N

Task: Moving on to the next molecule: COc1cc(C2CC(C)(N3CCCC3)Oc3cc4c(cc32)OCO4)cc(OC)c1OC (stereo not given)
Output: Y

Task: Moving on to the next molecule: COc1ccc(-c2onc(-c3ccc([N+](=O)[O-])cc3)c2C2=NCCN2)cc1
Output: N

Task: Moving on to the next molecule: COc1cc(/C=C/C=C2\CC/C(=C\C=C\c3ccc(O)c(OC)c3)C2=O)ccc1O
Output: N

Task: Moving on to the next molecule: CN(C)CCNC(=O)c1cccc2ccc(-c3ccc(-c4ccccc4)cc3)nc12
Output: N

Task: Moving on to the next molecule: O=C(Nc1c(O)[nH]c(=S)[nH]c1=O)c1ccccc1
Output: N

Task: Moving on to the next molecule: C=Cc1ccc(C)[n+](C[Si](C)(C)O[Si](C)(C)C[n+]2cc(C=C)ccc2C)c1
Output: N

Task: Moving on to the next molecule: O=C1Nc2ccccc2/C1=N/NC(=O)c1ccccc1O
Output: N

Task: Moving on to the next molecule: C=C(C)[C@@H]1CCC2=C[C@H](C/C(C)=C\C3=CC(C)=C(O3)[C@H]1O)OC2=O
Output: N

Task: Moving on to the next molecule: CCOC(=O)C1N(S(=O)(=O)c2ccc(C)cc2)CCC12c1ccccc1N(C(C)=O)C2c1ccc(OC)c(OC)c1 (stereo not given)
Output: N

---

Tested on: HCT-15
readout-type: GI50

Previously resolved entries follow.
Task: Recorded GI50 of COC(OC)C1OC(CO)C(n2cc(F)c(=O)[nH]c2=O)C1O (stereo unspecified) , please.
Output: > 100 µM

Task: Moving on to the next compound: CC(C)OP(=O)(OC(C)C)/C(I)=N/Nc1ccc([N+](=O)[O-])cc1
Output: > 100 µM

Task: Moving on to the next compound: CCCNc1[nH]c(C(=O)c2ccccc2)c(N)c1C(=S)Nc1ccccc1
Output: > 100 µM

Task: Moving on to the next compound: COc1cc2c(c(OC)c1OC)-c1ccc(SC)c(=O)cc1[C@@H](NC(=O)c1ccc([N+](=O)[O-])cc1)CC2
Output: 0.00843 µM

Task: Moving on to the next compound: O=C1C(Br)=CC2(C=C1Br)CCNC1=C2C(=O)c2[nH]cnc2C1=O
Output: 15.6 µM

Task: Moving on to the next compound: CC(C)(C)C(=O)Nc1ccccc1Br
Output: > 100 µM

Task: Moving on to the next compound: Cc1cc(C)c2ccc(N3CCNCC3)nc2n1
Output: > 100 µM

Task: Moving on to the next compound: C=C(C)[C@@H]1CCC2=C[C@H](C/C(C)=C\C3=CC(C)=C(O3)[C@H]1O)OC2=O
Output: > 100 µM

Could I get GI50 for every one of these entries?
1. C=CCOCn1cnc2c(N)ncnc21
2. O=C1N/C(=N/N=C/c2ccccc2)N/C1=C\c1cccs1
3. CC1CCc2c(c(CC3CC(=O)NC(=O)C3)nn2-c2ccccc2)C1 (stereo unspecified)

Output:
["> 100 µM", "17.9 µM", "> 100 µM"]
